Taken from PubChem BioAssay (NCI).

# Tested on: MDA-MB-468 breast
# METHOD SUMMARY: NCI tumour cell line growth inhibition, 48 h; in the data active = GI50 below about 0.43 µM; inactive = the rest
Choose the fitting class; nothing outside active, inactive is accepted.

Below are worked cases with known answers.
INSERT INTO assay_data (test_smiles, category_label) VALUES
  ('N#Cc1ccc(/C=N/NC(=O)c2[nH]c3ccc(Br)cc3c2-c2ccccc2)o1', 'active'),
  ('O=C(CCCSc1nc(-c2ccccc2)cc(-c2ccccc2)n1)NO', 'inactive'),
  ('CCCCCCCCCCCCCCCC[N+](C)(C)Cc1ccccc1', 'active');

Turning now to a further compound:
Exercise: Record lookup: outcome of this test for Cc1cc(C)cc(NC2=C(Cl)C(=O)c3nc(C)ccc3C2=O)c1 ?
Solution: inactive
